Reference source for all entries: patent US20050143296A1

- Test system: human skin fibroblasts
- experiment.description: Growth of human skin fibroblasts in dishes coated with silk fractions or peptides (low serum medium with LSGS, Alamer Blue viable cell number)
- Type: cell-based
- condition.label: Table 5; synthetic peptide 0.025%; 3-day culture; control = 100
Where no end group is shown, it is not given here.
Decision: Growth rate (%) >= 200% yields True, all other cases yield False.

[in] Decide: Growth rate (%) of YGWGDGGYGSDS [AfH1] >= 200%?
[out] True

[in] Reported Growth rate (%) reaches at least 200% for DDGFVLDGGYDSE [AfH7] ?
[out] True

[in] Exam item: decide whether the reported Growth rate (%) for DEYVDN [AfH5] is at least 200%.
[out] True

[in] Tell me whether Growth rate (%) is at least 200% here: RRAGHDRAAGS [AfH4]
[out] False

[in] Reported Growth rate (%) reaches at least 200% for VETIVLEEDPYGHEDIYEED [AfH6] ?
[out] True

* * *

For each entry below, report its Adhesion rate (%) value.
- Test system: human skin fibroblasts
- experiment.description: Adhesion of human skin fibroblasts after 5 hours in peptide-coated dishes (Medium 106S without LSGS)
- Type: cell-based
- condition.label: Table 8; 5 hour-culture; peptide 0.025 μg/cm^2; no LSGS; no peptide = 100
Where no end group is shown, it is not given here.
Phrase the answer as number then unit, nothing more needed.

[in] Adhesion rate (%) for DEYVDN [AfH5] ?
[out] 234%

[in] I am curious: what Adhesion rate (%) value has been reported for VETIVLEEDPYGHEDIYEED [AfH6] ?
[out] 135%

[in] # lookup: Adhesion rate (%) of RRAGHDRAAGS [AfH4]
[out] 151%

[in] Adhesion rate (%) lookup needed for SGAGGSGGYGGYGSDS [AfH2] , thanks.
[out] 149%

[in] Item under review: YGWGDGGYGSDS [AfH1] . Reported Adhesion rate (%)?
[out] 169%

[in] Quick check: Adhesion rate (%) of DEDEDE ?
[out] 229%

[in] // query Adhesion rate (%) value for entry GSSGFGPYVAHGGYSGYEYAWSSESDFGT [SfHA]
[out] 205%

[in] Which measured Adhesion rate (%) value corresponds to GSGAGGRGDGGYGSGSS [AfH3] ?
[out] 174%

[in] Which measured Adhesion rate (%) value corresponds to DDGFVLDGGYDSE [AfH7] ?
[out] 153%

* * *

- Tested on: human skin fibroblasts
- experiment.description: Growth of human skin fibroblasts in dishes coated with silk fractions or peptides (low serum medium with LSGS, Alamer Blue viable cell number)
- Assay type: cell-based
- condition.label: Table 6; values of Tables 4 and 5 at higher peptide concentration (0.025%)
Where no end group is shown, it is not given here.
Lab note: anything with Cell growth rate (%) below 300% is marked MET; values at 300% or higher are marked NOT MET.

[in] Problem: For the substance RRAGHDRAAGS [AfH4] , is Cell growth rate (%) under 300%?
[out] MET

[in] Please check: Cell growth rate (%) for DDGFVLDGGYDSE [AfH7] , strictly under 300% or not?
[out] MET

[in] Decide: Cell growth rate (%) of DEYVDN [AfH5] strictly below 300%?
[out] NOT MET

[in] Below 300% on Cell growth rate (%)? Entry SGAGGSGGYGGYGSDS [AfH2]
[out] MET

[in] Quick check: Cell growth rate (%) of GSSGFGPYVAHGGYSGYEYAWSSESDFGT [SfHA] under 300%?
[out] NOT MET

[in] Does GSGAGGRGDGGYGSGSS [AfH3] have Cell growth rate (%) strictly under 300%?
[out] MET

[in] Cell growth rate (%) strictly < 300% for this substance? YGWGDGGYGSDS [AfH1]
[out] NOT MET

[in] Lab log: compare recorded Cell growth rate (%) with 300%; is it strictly lower for VETIVLEEDPYGHEDIYEED [AfH6] ?
[out] MET
